- Tested on: K4 kissing-loop RNA reporter;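 further: bound reporter read as fluorescence of individual clusters on recovered sequencing chips by microscopy, with normalized cluster intensities fitted with a binding model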
- Protocol summary: apparent KD of K4 kissing-loop reporter; higher = weaker reporter binding
- Stated conditions: Eterna round: R107; input ligand: theophylline 20 uM
Would you mind telling me the reported apparent KD of K4 kissing-loop reporter of each entry?
Please reply with the bare figure in nM and do not write the unit itself.

# input Give apparent KD of K4 kissing-loop reporter only, for UGGAGUUGACGAAAAGUCAACUCCUGAGAAGGAGCGGACGAAAGUCCAGGUAGGUCGCUCACUACCAGUGAUGUUGGUAAUUCAA [#OpenEnded 3] , using K4 kissing-loop RNA reporter data.
# output 272

# input Give apparent KD of K4 kissing-loop reporter only, for CGCCACAACUGAAGGAGCGCGCCAGUGAUGUUGGACGGCUUCGUCAAGGAAACUGCACCGGUGCAGGUAGGUCGCAGUGCGUGGU [Eranarve] , using K4 kissing-loop RNA reporter data.
# output 162

# input Give apparent KD of K4 kissing-loop reporter only, for GUCCCGAGUGAUGUUCGGGUCGUUCGGGAAGGAGCGCCCGCAAGGGCAGGUAGGUCGCCCGGAUCUCUCAGGUAACUGAGAGACC [#2 Same State - Arginine A Attempt #28 (HarryS)] , using K4 kissing-loop RNA reporter data.
# output 408

# input Give apparent KD of K4 kissing-loop reporter only, for CCUAUCUCGUACGAUACCAGUCAAUGAUCUUUGAUCAAUGCCAUCACCGAGUGAUGUUCGGACCCUUGGCAGCGUAUGAGAUGGG [whbob_Ex_Theo_B_sa105] , using K4 kissing-loop RNA reporter data.
# output 386

# input Give apparent KD of K4 kissing-loop reporter only, for AAGUGUGGUCCAGUGAUGUUGGAACCAGAUACCAGCGACAUAGUGCGCCCUUGGCAGCUGGCACACAUGCGCUGCACGACUAGAA [Riusveis] , using K4 kissing-loop RNA reporter data.
# output 363

# input Give apparent KD of K4 kissing-loop reporter only, for UCGAAGGAUGGAAGGAGCGCUCGUCAGUCCUGCGAGUGAUGUUCGUGGGUAAAUAGUCGCGAGCAGGUAGGUCGCCAUCUUGAGC [Laxe] , using K4 kissing-loop RNA reporter data.
# output 126

# input Give apparent KD of K4 kissing-loop reporter only, for CUUAUGGCGUUUGGAAGGAGCGGCUCAUCACGAGGACCGGUACGGCCGCCACUCGAGAGAGCAUAAGAAAGUGAUGUUUUCGGUU [theeternabot_sameState_KL_Trp_A_44] , using K4 kissing-loop RNA reporter data.
# output 395

# input Give apparent KD of K4 kissing-loop reporter only, for UGAUUUAACUGAAGGAGCGGCAAUUGAUAAGUAAAUAUAGUGAUGUUAUAUAAGAGAGAGAGCCAGGUAGGUCGCAGAGGGAGGA [ExArgB.I] , using K4 kissing-loop RNA reporter data.
# output 170

# input Give apparent KD of K4 kissing-loop reporter only, for GCCAGUGAUGUUGGCAUUUCGAGCCAUGAAGGAGCGCACGGAAGUGCAGGUAGGUCGCAUGGUACUUAGGAUAUUACCCUAAGUA [Isterare] , using K4 kissing-loop RNA reporter data.
# output 200

# input Give apparent KD of K4 kissing-loop reporter only, for AAUAAUCUAGGUGAUACCAGCUCAACAUGAGUGAUGUUCAUGAACUAAUGUAGAGUUGAGAGCCCUUGGCAGCACCUAGAUAAUA [KL-SSTheoB6] , using K4 kissing-loop RNA reporter data.
# output 458

# input Give apparent KD of K4 kissing-loop reporter only, for GCAGUGAUGUUGCACGAGUAGGCUGGAGUACGAGGACCGGUACGGCCGCCACUCGUACGAUAGUCGCUAAUUUAUGGAAUGGUGA [#08 K4 Tryptophan A Same State] , using K4 kissing-loop RNA reporter data.
# output 286

# input Give apparent KD of K4 kissing-loop reporter only, for GGAAUAACCUGGGAUACCAGUCGGAGGACUAGGGAUCGGAGUGAUGUUCUGGGAUGUUUCGGCCCUUGGCAGCUCUGGUUUUCCG [#2 Exclusion - Theophylline B Attempt #1 (HarryS)] , using K4 kissing-loop RNA reporter data.
# output 614
